# Assay target: T1, Ube2T wildtype (human, UniProt Q9NPD8 1-197)
# T1 sequence (looked up): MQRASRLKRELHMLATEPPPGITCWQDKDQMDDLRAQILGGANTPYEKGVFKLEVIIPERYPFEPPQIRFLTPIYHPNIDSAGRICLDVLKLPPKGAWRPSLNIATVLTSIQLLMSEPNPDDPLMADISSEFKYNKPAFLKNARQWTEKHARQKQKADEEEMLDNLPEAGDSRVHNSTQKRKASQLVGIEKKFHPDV
# Test name: ITC
Reported metric: Kd

Summary for this binder, FANCL RING domain (FANCL^R, residues 289-375) (domain or fragment, human, UniProt Q9NW38 289-375, looked up) EIDFPARAILEKSDFTMDCGICYAYQLDGTIPDQVCDNSQCGQPFHQICLYEWLRGLLTSRQSFNIIFGECPYCSKPITLKMSGRKH : Kd is ~250 nM
